- system name: Sentrin-specific protease 8 (Homo sapiens, UniProt Q96LD8)
- Sequence (Q96LD8 whole entry): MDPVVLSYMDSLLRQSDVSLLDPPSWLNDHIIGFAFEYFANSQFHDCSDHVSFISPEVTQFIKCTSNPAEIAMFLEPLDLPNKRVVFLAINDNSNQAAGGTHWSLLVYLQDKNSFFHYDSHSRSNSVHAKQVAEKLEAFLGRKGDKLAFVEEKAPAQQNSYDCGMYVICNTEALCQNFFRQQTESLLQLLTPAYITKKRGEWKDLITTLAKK
- test details: SENP8 protease inhibitors, SAR follow-up, biochemical, luminescence (AID 504501)
- Assay type: functional
The source made the active and inactive calls.
Possible outcomes: y for active, n for inactive

>>> class_assignment("CCCc1ccccc1-c1nc(/C=C/c2ccccc2)no1")
"n"
>>> class_assignment("Cc1[nH]c(=O)sc1S(=O)(=O)N1CCN(C(=O)c2sc3cc(F)ccc3c2Cl)CC1")
"n"
>>> class_assignment("CCCCc1ccc2nc(NC(=O)c3oc4ccccc4c3C)sc2c1")
"n"
>>> class_assignment("CC(=O)Nc1ccc(/C=C/c2noc(-c3ccccc3O)n2)cc1")
"n"
>>> class_assignment("O=C(NNc1cc(N2CCCC2)nc(N2CCCC2)n1)c1ccc([N+](=O)[O-])cc1")
"y"
>>> class_assignment("CCOc1ccc2nc(NC(=O)Cn3c(=O)oc4ccc(C(=O)N5CCCC5)cc43)sc2c1")
"n"
>>> class_assignment("CN(C)CCN(C(=O)c1ccc(Cl)s1)c1nc2ccc(F)cc2s1")
"n"

====

- test details: C. albicans growth with fluconazole, confirmation, fluorescence, retest (AID 2467)
- Assay type: functional, cell-based
Activity calls are given as the source filed them.
measured attribute: EC50

>>> result("CCN1/C(=C/c2cccc[n+]2C)Sc2ccc(OC)cc21")
"961 nM (active)"
>>> result("CCCCN(CCCC)S(=O)(=O)c1ccc(C(=O)Nc2nnc(COC)o2)cc1")
"2920 nM (active)"
>>> result("COc1ccc(-n2c(=O)c3c4c(sc3n3c(S)nnc23)CCCC4)cc1")
"1170 nM (active)"
>>> result("CN(/C=C/C1=[N+](C)c2ccccc2C1(C)C)c1ccccc1")
"> 38000 nM (not active)"
>>> result("O=S(=O)(O)c1cccc2c(N=Nc3ccc(O)c4ncccc34)cccc12")
"> 38000 nM (not active)"

====

- system name: 26S proteasome non-ATPase regulatory subunit 14 (Homo sapiens, UniProt O00487)
- Sequence (O00487 whole entry): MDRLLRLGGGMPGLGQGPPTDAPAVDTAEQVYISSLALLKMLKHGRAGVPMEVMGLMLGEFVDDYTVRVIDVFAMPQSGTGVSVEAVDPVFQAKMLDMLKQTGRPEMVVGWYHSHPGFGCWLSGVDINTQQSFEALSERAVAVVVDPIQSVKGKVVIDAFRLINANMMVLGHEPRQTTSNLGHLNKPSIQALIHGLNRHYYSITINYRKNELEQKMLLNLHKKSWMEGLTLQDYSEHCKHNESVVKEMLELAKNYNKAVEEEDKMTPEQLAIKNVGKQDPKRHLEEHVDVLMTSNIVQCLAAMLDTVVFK
- test details: inhibition of proteasome subunit RPN11 – biochemical, fluorescence polarization, uHTS hits, confirmation (AID 602368)
- Assay type: functional
Activity calls are given as the source filed them.
measured attribute: IC50

>>> result("Cc1cc(C)cc(NC(=O)Cn2nnc(C(=O)NCc3ccc4c(c3)OCO4)c2N)c1")
"22.9 µM (active)"
>>> result("CCOc1ccccc1N1C(=O)NC(=O)/C(=C\\Nc2ccc(N(CC)CC)cc2)C1=O")
"18.3 µM (active)"
>>> result("COc1ccc(-n2c(/C=C/c3ccc(O)c(O)c3)nc3ccccc3c2=O)cc1")
"9.05 µM (active)"
>>> result("Cc1cc(C)c(S(=O)(=O)N2C[C@H]3CON(C)[C@H]3C[C@H]2c2ccc(N3CCCCC3)cc2)c(C)c1")
"23.2 µM (active)"
